molecular target: BTK (Mus musculus); construct: from tissue; host or cells: whole blood or spleen of CD-1 or BALB/c mice; experiment: Mouse BTK degradation assay with oral dosing; format: in vivo; details: CD-1 or BALB/c mice, oral gavage (PO); Yes = significant BTK degradation upon oral dosage
Sequence (P35991 whole entry): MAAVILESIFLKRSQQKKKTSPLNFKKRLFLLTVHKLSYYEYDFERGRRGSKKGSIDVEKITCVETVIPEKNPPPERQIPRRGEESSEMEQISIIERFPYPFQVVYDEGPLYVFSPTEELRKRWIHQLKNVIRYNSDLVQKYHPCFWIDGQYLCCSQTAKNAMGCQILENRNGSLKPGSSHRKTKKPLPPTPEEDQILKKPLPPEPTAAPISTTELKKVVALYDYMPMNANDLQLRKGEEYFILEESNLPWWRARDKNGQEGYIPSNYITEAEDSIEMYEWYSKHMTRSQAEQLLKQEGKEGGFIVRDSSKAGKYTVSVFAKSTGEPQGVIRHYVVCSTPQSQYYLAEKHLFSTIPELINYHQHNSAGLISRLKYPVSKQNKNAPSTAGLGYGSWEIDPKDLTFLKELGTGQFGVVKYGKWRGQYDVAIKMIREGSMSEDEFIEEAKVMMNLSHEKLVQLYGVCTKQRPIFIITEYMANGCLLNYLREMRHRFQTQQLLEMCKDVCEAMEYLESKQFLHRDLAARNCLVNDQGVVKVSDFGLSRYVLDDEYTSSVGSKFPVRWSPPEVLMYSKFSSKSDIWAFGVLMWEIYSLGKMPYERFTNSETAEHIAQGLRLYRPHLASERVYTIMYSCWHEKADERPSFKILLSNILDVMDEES
Readout Name: BTK degradation after oral dosing

Cn1cc(Nc2nc(N3CCC[C@H](N4CC5(CN(CC6CCN(c7ccc(C(=O)NC8CCC(=O)NC8=O)nc7)CC6)C5)OC4=O)C3)cnc2C(N)=O)cn1 (stereo partly drawn)
Yes
CN1CCN([C@H]2CCCN(c3cnc(C(N)=O)c(Nc4ccc(C5(C)CCN(C6CN(c7ccc8c(c7)C(=O)N(C7CCC(=O)NC7=O)C8=O)C6)CC5)cc4)n3)C2)C1=O (stereo partly drawn)
Yes
NC(=O)c1ncc(N2CCC[C@H](N3CCOC3=O)C2)nc1Nc1ccc(N2CCC(C3CN(c4ccc5c(c4)C(=O)N(C4CCC(=O)NC4=O)C5=O)C3)CC2)cc1 (stereo partly drawn)
Yes
